Taken from BigSolDB 2.1.

Conditions: in methanol, 283.15 K
readout label: solubility (mole fraction)

Query: Quick check: solubility (mole fraction) of CC(C)Oc1ccc2c(=O)c(-c3ccccc3)coc2c1 ?
Result: 0.00109

###

Settings: in n-butanol, 303.15 K
readout label: solubility (mole fraction)

Query: Quick check: solubility (mole fraction) of CC(C)Oc1ccc2c(=O)c(-c3ccccc3)coc2c1 ?
Result: 0.00645

###

Settings: in n-butanol, 293.15 K
readout label: solubility (mole fraction)
Field format: numeric only.

Query: Any idea what its solubility (mole fraction) is? The molecule is CC(C)Oc1ccc2c(=O)c(-c3ccccc3)coc2c1
Result: 0.00375

###

Details: in ethanol, 308.15 K
readout label: solubility (mole fraction)
Reply with the value as a number alone.

Query: Find the recorded solubility (mole fraction) belonging to CC(C)Oc1ccc2c(=O)c(-c3ccccc3)coc2c1 and report it.
Result: 0.00521

###

Conditions: in acetonitrile, 283.15 K
readout label: solubility (mole fraction)
Lab note: write the figure by itself, no unit.

Query: Reported solubility (mole fraction) for CC(C)Oc1ccc2c(=O)c(-c3ccccc3)coc2c1 : what is it?
Result: 0.00336

###

Conditions: in n-propanol, 313.15 K
readout label: solubility (mole fraction)
Answer with a number only.

Query: For CC(C)Oc1ccc2c(=O)c(-c3ccccc3)coc2c1 , what is its reported solubility (mole fraction)?
Result: 0.00877

###

Settings: in n-propanol, 308.15 K
readout label: solubility (mole fraction)
Answer as a number with no unit attached.

Query: What value of solubility (mole fraction) has been recorded for this entry: CC(C)Oc1ccc2c(=O)c(-c3ccccc3)coc2c1
Result: 0.00671

###

Conditions: in acetone, 298.15 K
readout label: solubility (mole fraction)

Query: Returns the measured solubility (mole fraction) for the input compound. Input: CC(C)Oc1ccc2c(=O)c(-c3ccccc3)coc2c1
Result: 0.0193

###

Details: in n-butanol, 323.15 K
readout label: solubility (mole fraction)
The answer should be written as a number, with no unit following it.

Query: Which solubility (mole fraction) is reported for this compound? CC(C)Oc1ccc2c(=O)c(-c3ccccc3)coc2c1
Result: 0.0195

###

Details: in methanol, 303.15 K
readout label: solubility (mole fraction)
// return a plain number; no unit text

Query: Entry under review: CC(C)Oc1ccc2c(=O)c(-c3ccccc3)coc2c1 . Reported solubility (mole fraction)?
Result: 0.0032

###

Conditions: in DMAc, 303.15 K
readout label: solubility (mole fraction)

Query: Entry CC(C)Oc1ccc2c(=O)c(-c3ccccc3)coc2c1 : reported solubility (mole fraction) = ?
Result: 0.0841

###

Conditions: in methanol, 318.15 K
readout label: solubility (mole fraction)
// keep it numeric: no unit symbol after the value

Query: Param item = CC(C)Oc1ccc2c(=O)c(-c3ccccc3)coc2c1 ; retrieve measured solubility (mole fraction).
Result: 0.00623

###

Settings: in DMAc, 288.15 K
readout label: solubility (mole fraction)
Give the figure only, with no unit attached.

Query: // returns reported solubility (mole fraction) for input CC(C)Oc1ccc2c(=O)c(-c3ccccc3)coc2c1
Result: 0.0534

###

Conditions: in methanol, 308.15 K
readout label: solubility (mole fraction)
I'd appreciate a reply containing only the number, no unit.

Query: Which measured solubility (mole fraction) value corresponds to CC(C)Oc1ccc2c(=O)c(-c3ccccc3)coc2c1 ?
Result: 0.00391

###

Conditions: in acetonitrile, 278.15 K
readout label: solubility (mole fraction)
Just the number, please.

Query: Given CC(C)Oc1ccc2c(=O)c(-c3ccccc3)coc2c1 , state its recorded solubility (mole fraction).
Result: 0.00246

###

Details: in dichloromethane, 308.15 K
readout label: solubility (mole fraction)
Lab note: jot down the number only; don't add units.

Query: Fill in: solubility (mole fraction) of CC(C)Oc1ccc2c(=O)c(-c3ccccc3)coc2c1 is ___
Result: 0.119

###

Conditions: in DMF, 298.15 K
readout label: solubility (mole fraction)
Response field accepts a number only; no unit should be typed.

Query: Fill blank: measured solubility (mole fraction) of the compound CC(C)Oc1ccc2c(=O)c(-c3ccccc3)coc2c1 is ____.
Result: 0.0506

###

Conditions: in acetone, 313.15 K
readout label: solubility (mole fraction)
Answer using only a numeral; do not append any unit.

Query: Requested field: solubility (mole fraction). Item: CC(C)Oc1ccc2c(=O)c(-c3ccccc3)coc2c1
Result: 0.0363

###

Details: in DMAc, 318.15 K
readout label: solubility (mole fraction)
API note: the answer field is a bare number with no unit suffix.

Query: For the compound CC(C)Oc1ccc2c(=O)c(-c3ccccc3)coc2c1 , what solubility (mole fraction) is on record?
Result: 0.133

###

Conditions: in DMF, 308.15 K
readout label: solubility (mole fraction)
Answer as a number with no unit attached.

Query: Query (molecule): CC(C)Oc1ccc2c(=O)c(-c3ccccc3)coc2c1 ; field requested: solubility (mole fraction)
Result: 0.0718

###

Settings: in acetone, 308.15 K
readout label: solubility (mole fraction)

Query: Tell me the measured solubility (mole fraction) of CC(C)Oc1ccc2c(=O)c(-c3ccccc3)coc2c1 , please.
Result: 0.0291

###

Settings: in DMF, 283.15 K
readout label: solubility (mole fraction)

Query: Reported solubility (mole fraction) for CC(C)Oc1ccc2c(=O)c(-c3ccccc3)coc2c1 : what is it?
Result: 0.0301

###

Conditions: in methyl acetate, 323.15 K
readout label: solubility (mole fraction)
I only need the number, thanks.

Query: Value lookup for solubility (mole fraction); key = CC(C)Oc1ccc2c(=O)c(-c3ccccc3)coc2c1
Result: 0.059

###

Details: in n-pentanol, 308.15 K
readout label: solubility (mole fraction)
Could you keep your reply to the number by itself?

Query: Any idea what its solubility (mole fraction) is? The compound is CC(C)Oc1ccc2c(=O)c(-c3ccccc3)coc2c1
Result: 0.00992

###

Conditions: in acetonitrile, 288.15 K
readout label: solubility (mole fraction)
// response body must contain only the number

Query: Recorded solubility (mole fraction) of CC(C)Oc1ccc2c(=O)c(-c3ccccc3)coc2c1 , please.
Result: 0.00441

###

Details: in acetone, 303.15 K
readout label: solubility (mole fraction)
// keep it numeric: no unit symbol after the value

Query: I am curious: what solubility (mole fraction) value has been reported for CC(C)Oc1ccc2c(=O)c(-c3ccccc3)coc2c1 ?
Result: 0.0241

###

Details: in DMF, 323.15 K
readout label: solubility (mole fraction)
Give the value as a plain number.

Query: Which solubility (mole fraction) is reported for this compound? CC(C)Oc1ccc2c(=O)c(-c3ccccc3)coc2c1
Result: 0.126

###

Conditions: in toluene, 278.15 K
readout label: solubility (mole fraction)

Query: GET /values?readout=solubility (mole fraction)&item= CC(C)Oc1ccc2c(=O)c(-c3ccccc3)coc2c1
Result: 0.0114

###

Details: in n-pentanol, 323.15 K
readout label: solubility (mole fraction)
The reply should be a number, written without any unit.

Query: Please look up its solubility (mole fraction): CC(C)Oc1ccc2c(=O)c(-c3ccccc3)coc2c1
Result: 0.0221

###

Conditions: in DMAc, 308.15 K
readout label: solubility (mole fraction)
The answer should be a number; do not append a unit.

Query: Sample CC(C)Oc1ccc2c(=O)c(-c3ccccc3)coc2c1 — what was its solubility (mole fraction)?
Result: 0.0981

###

Conditions: in n-propanol, 283.15 K
readout label: solubility (mole fraction)

Query: What value of solubility (mole fraction) has been reported for the following compound? CC(C)Oc1ccc2c(=O)c(-c3ccccc3)coc2c1
Result: 0.00172

###

Settings: in ethanol, 293.15 K
readout label: solubility (mole fraction)
Give the figure by itself; no unit, no explanation.

Query: Bench note: what solubility (mole fraction) did CC(C)Oc1ccc2c(=O)c(-c3ccccc3)coc2c1 show?
Result: 0.00239

###

Details: in acetonitrile, 323.15 K
readout label: solubility (mole fraction)
Give only the figure.

Query: So what's the measured solubility (mole fraction) for this one? CC(C)Oc1ccc2c(=O)c(-c3ccccc3)coc2c1
Result: 0.0282

###

Settings: in DMF, 303.15 K
readout label: solubility (mole fraction)
Give a plain numeric answer without units written out.

Query: Data request, read-out solubility (mole fraction), for CC(C)Oc1ccc2c(=O)c(-c3ccccc3)coc2c1
Result: 0.0622

###

Settings: in n-pentanol, 283.15 K
readout label: solubility (mole fraction)
// return a plain number; no unit text

Query: // query solubility (mole fraction) value for entry CC(C)Oc1ccc2c(=O)c(-c3ccccc3)coc2c1
Result: 0.00239

###

Conditions: in DMAc, 313.15 K
readout label: solubility (mole fraction)
Output spec: single numeric token, no unit.

Query: Given CC(C)Oc1ccc2c(=O)c(-c3ccccc3)coc2c1 , state its recorded solubility (mole fraction).
Result: 0.113

###

Details: in DMF, 313.15 K
readout label: solubility (mole fraction)
Lab note: write the figure by itself, no unit.

Query: Which solubility (mole fraction) value belongs to CC(C)Oc1ccc2c(=O)c(-c3ccccc3)coc2c1 ?
Result: 0.0884
